These records show log10 AC50 for human CYP2D6 (Homo sapiens, UniProt P10635).
On a log10 scale: recorded AC50, unit µM.

Field: example entries. Status: answers known.
# compound, log10 AC50
records = [
    ("O=C1C=CC(=O)N1c1cccc(N2C(=O)C=CC2=O)c1 [N,N'-1,3-Phenylenedimaleimide]", 1.56),
    ("COC(OC)(C(=O)c1ccccc1)c1ccccc1 [2,2-Dimethoxy-1,2-diphenylethanone]", 1.54),
    ("N.N.O=C([O-])C1(C(=O)[O-])CCC1.[Pt+2] [Carboplatin]", 1.46),
    ("CN1C(=O)N(c2ccccc2Br)Cc2cnc(Nc3ccc4c(c3)OCC(CO)O4)nc21 (stereo not shown) [PharmaGSID_48519]", 1.75),
    ("CCOC(=O)COc1ccc2c(C)c(CCN(CC)CC)c(=O)oc2c1Cl.Cl [Cloricromen hydrochloride]", 1.26),
]

Q. Look up human CYP2D6 (Homo sapiens, UniProt P10635) data: log10 AC50 of CN(C)C1CSSSC1.O=C(O)C(=O)O [Thiocyclam oxalate] , then report it.
A. 1.59

Q. Look up human CYP2D6 (Homo sapiens, UniProt P10635) data: log10 AC50 of O=C(Cc1ccccc1)OCc1ccccc1 [Benzyl phenylacetate] , then report it.
A. 1.82

Q. Look up human CYP2D6 (Homo sapiens, UniProt P10635) data: log10 AC50 of CCCCCCCCCCCSCC(=O)O [3-Thiatetradecanoic acid] , then report it.
A. 1.31

Q. Look up human CYP2D6 (Homo sapiens, UniProt P10635) data: log10 AC50 of O=C(c1ccc(O)c(O)c1)c1ccc(O)cc1O [2,3',4,4'-Tetrahydroxybenzophenone] , then report it.
A. 0.88

Q. Look up human CYP2D6 (Homo sapiens, UniProt P10635) data: log10 AC50 of O=S(=O)(Oc1ccc(Cl)cc1)c1ccccc1 [Fenson] , then report it.
A. 1.55

Q. Look up human CYP2D6 (Homo sapiens, UniProt P10635) data: log10 AC50 of BrCc1cccc(Oc2ccccc2)c1 [1-(Bromomethyl)-3-phenoxybenzene] , then report it.
A. 1.70

* * *

- assay-system: human CYP1A2 (Homo sapiens, UniProt P05177)
- Sequence (P05177 whole entry): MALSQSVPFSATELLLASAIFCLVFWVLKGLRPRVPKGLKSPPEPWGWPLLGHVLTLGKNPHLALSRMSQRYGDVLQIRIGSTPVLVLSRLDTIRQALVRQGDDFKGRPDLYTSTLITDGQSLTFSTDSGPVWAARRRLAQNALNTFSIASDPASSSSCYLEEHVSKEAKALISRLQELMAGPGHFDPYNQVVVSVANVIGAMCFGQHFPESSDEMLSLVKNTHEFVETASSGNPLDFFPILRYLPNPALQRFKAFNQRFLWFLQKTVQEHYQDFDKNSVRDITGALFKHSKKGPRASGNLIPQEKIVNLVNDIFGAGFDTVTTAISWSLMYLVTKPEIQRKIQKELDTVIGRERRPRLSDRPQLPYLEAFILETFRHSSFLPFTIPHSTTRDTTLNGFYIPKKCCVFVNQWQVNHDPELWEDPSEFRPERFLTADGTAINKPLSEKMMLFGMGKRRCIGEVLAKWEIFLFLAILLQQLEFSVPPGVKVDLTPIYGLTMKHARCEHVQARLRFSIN
- test-details: biochemical
- assay-conditions: CYP1A2 IC50 (half-maximal inhibitory concentration)
Counter-ions that a name gives are not always drawn.
The label is T for IC50 below 6 µM and F for IC50 equal to or exceeding 6 µM.

Example entries and their recorded answers appear below.
# compound, answer-label
records = [
    ("CCOC(=O)C1=C(C)NC(C)=C(C(=O)OCC)C1c1ccccc1/C=C/C(=O)OC(C)(C)C", "F"),
    ("O=C1c2ccccc2C(=O)C1C(=O)C(c1ccccc1)c1ccc(Cl)cc1 (stereo not drawn)", "F"),
    ("CCOP(=S)(NC(C)C)Oc1ccccc1C(=O)OC(C)C (stereo not drawn)", "F"),
    ("c1ccc(-c2ccc(C(c3ccccc3)n3ccnc3)cc2)cc1 (stereo not drawn)", "T"),
    ("O=S(=O)(Oc1ccc(Cl)cc1Cl)c1ccccc1 [2,4-Dichlorophenyl benzenesulfonate]", "T"),
    ("CCCCOCCOCCOCc1cc2c(cc1CCC)OCO2 [Piperonyl butoxide]", "T"),
]

Q. Given the entry Clc1ccc(C(c2ccc(Cl)cc2)C(Cl)Cl)cc1 , would its reported IC50 be below 6 µM?
A. F

Q. Given the entry COP(N)(=S)Oc1ccccc1C(=O)OC(C)C (stereo not drawn) , would its reported IC50 be below 6 µM?
A. T

Q. Given the entry CN(C)CCCN1c2ccccc2Sc2ccc(C(F)(F)F)cc21 [Triflupromazine hydrochloride] , would its reported IC50 be below 6 µM?
A. T

Q. Given the entry C=CC(=O)OCC(CO)(COC(=O)C=C)COC(=O)C=C [Pentaerythritol triacrylate] , would its reported IC50 be below 6 µM?
A. F

* * *

- assay-system: human CYP2C19 (Homo sapiens, UniProt P33261)
- Sequence (P33261 whole entry): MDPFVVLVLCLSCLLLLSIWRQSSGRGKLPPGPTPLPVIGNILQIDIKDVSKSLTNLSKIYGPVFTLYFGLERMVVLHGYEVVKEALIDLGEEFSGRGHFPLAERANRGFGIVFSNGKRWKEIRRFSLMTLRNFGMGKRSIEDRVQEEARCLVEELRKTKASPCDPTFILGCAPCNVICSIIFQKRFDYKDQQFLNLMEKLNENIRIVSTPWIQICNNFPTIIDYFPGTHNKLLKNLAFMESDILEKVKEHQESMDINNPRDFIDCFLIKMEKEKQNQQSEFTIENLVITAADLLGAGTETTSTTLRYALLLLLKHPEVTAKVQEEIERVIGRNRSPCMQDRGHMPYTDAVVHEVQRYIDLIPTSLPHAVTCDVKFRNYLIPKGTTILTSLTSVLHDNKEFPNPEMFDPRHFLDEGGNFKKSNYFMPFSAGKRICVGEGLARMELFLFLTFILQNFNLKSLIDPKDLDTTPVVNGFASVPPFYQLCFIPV
observed-property: CYP2C19 AC50 (half-maximal activity concentration)

Field: example entries. Status: answers known.
# compound, readout-value
records = [
    ("O=C(NC(=O)c1c(F)cccc1F)Nc1cc(Cl)c(Oc2ncc(C(F)(F)F)cc2Cl)c(Cl)c1", "Inconclusive inhibitor"),
    ("CCCCCCCCCC(C)C=O (stereo not shown)", "Inconclusive inhibitor"),
    ("COC(=O)c1ccc(O)cc1", "Inactive"),
    ("CCc1cnc(C(=O)O)c(C(=O)O)c1", "Inactive"),
    ("Clc1cnc(Oc2ccc(Oc3ncc(Cl)cc3Cl)cc2)c(Cl)c1", "Inactive"),
]

Q. Supply reported CYP2C19 AC50 (half-maximal activity concentration) belonging to this compound: O=C1OC(=O)c2cc(Oc3ccc4c(c3)C(=O)OC4=O)ccc21
A. Inconclusive inhibitor

Q. Supply reported CYP2C19 AC50 (half-maximal activity concentration) belonging to this compound: O=[N+]([O-])c1cccc2cccnc12
A. Inconclusive inhibitor

Q. Supply reported CYP2C19 AC50 (half-maximal activity concentration) belonging to this compound: COC(=O)c1ccc(C(=O)OC)cc1 [Dimethyl terephthalate]
A. Inactive

Q. Supply reported CYP2C19 AC50 (half-maximal activity concentration) belonging to this compound: COCC(=O)N(c1c(C)cccc1C)[C@H](C)C(=O)OC [Metalaxyl-M]
A. Inconclusive inhibitor

Q. Supply reported CYP2C19 AC50 (half-maximal activity concentration) belonging to this compound: N=C(N)N/N=C/c1c(Cl)cccc1Cl
A. Inactive

* * *

- assay-system: human CYP2C9 (Homo sapiens, UniProt P11712)
- Sequence (P11712 whole entry): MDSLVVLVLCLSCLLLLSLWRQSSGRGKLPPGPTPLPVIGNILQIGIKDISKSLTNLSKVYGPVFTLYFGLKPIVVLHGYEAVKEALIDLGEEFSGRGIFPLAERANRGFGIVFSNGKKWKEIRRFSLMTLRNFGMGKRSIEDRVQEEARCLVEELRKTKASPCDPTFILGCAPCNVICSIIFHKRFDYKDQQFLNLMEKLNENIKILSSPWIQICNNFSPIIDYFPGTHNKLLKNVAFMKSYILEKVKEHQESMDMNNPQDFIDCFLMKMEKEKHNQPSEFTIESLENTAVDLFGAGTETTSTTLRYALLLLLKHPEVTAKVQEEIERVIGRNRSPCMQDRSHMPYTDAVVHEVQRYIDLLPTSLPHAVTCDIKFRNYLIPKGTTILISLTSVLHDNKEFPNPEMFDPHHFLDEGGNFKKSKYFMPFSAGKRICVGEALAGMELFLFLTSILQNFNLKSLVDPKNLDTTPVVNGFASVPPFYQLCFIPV
observed-property: CYP2C9 AC50 (half-maximal activity concentration)

# compound, readout-value
data = [
    ("Cc1ccc(C(=O)O)cc1[N+](=O)[O-]", "Inactive"),
    ("N#Cc1c(Cl)cccc1Cl", "Inconclusive inhibitor"),
    ("O=C(O)c1ccc(Cl)c(Cl)c1", "Inconclusive inhibitor"),
    ("O=C1OC(=O)c2cc(Oc3ccc4c(c3)C(=O)OC4=O)ccc21", "Inactive"),
    ("Cc1cc(C)nc(O)n1.O=C(Nc1ccc([N+](=O)[O-])cc1)Nc1ccc([N+](=O)[O-])cc1", "Inactive"),
]

Q. Look up human CYP2C9 (Homo sapiens, UniProt P11712) data: CYP2C9 AC50 (half-maximal activity concentration) of CCC1(c2ccccc2)CCC(=O)NC1=O (stereo not shown) [Glutethimide] , then report it.
A. Inconclusive inhibitor

Q. Look up human CYP2C9 (Homo sapiens, UniProt P11712) data: CYP2C9 AC50 (half-maximal activity concentration) of CC(C)c1ccc2ncccc2c1 , then report it.
A. Inactive

Q. Look up human CYP2C9 (Homo sapiens, UniProt P11712) data: CYP2C9 AC50 (half-maximal activity concentration) of Clc1nnc(Cl)c2ccccc12 , then report it.
A. Inactive

Q. Look up human CYP2C9 (Homo sapiens, UniProt P11712) data: CYP2C9 AC50 (half-maximal activity concentration) of CC(=O)c1cc2ccccc2s1 [2-Acetylbenzo[b]thiophene] , then report it.
A. Inactive

Q. Look up human CYP2C9 (Homo sapiens, UniProt P11712) data: CYP2C9 AC50 (half-maximal activity concentration) of CC(=O)O[C@H]1CC[C@@]2(C)C(=CC[C@@H]3[C@@H]2CC[C@]2(C)C(C(C)=O)=CC[C@@H]32)C1 [Dehydropregnenolone acetate] , then report it.
A. Inactive

Q. Look up human CYP2C9 (Homo sapiens, UniProt P11712) data: CYP2C9 AC50 (half-maximal activity concentration) of CC(C)(C)c1cccc(O)c1 , then report it.
A. Inconclusive inhibitor

Q. Look up human CYP2C9 (Homo sapiens, UniProt P11712) data: CYP2C9 AC50 (half-maximal activity concentration) of C[C@H](CSC(=O)c1ccccc1)C(=O)N1C[C@@H](Sc2ccccc2)C[C@H]1C(=O)O , then report it.
A. Inactive

Q. Look up human CYP2C9 (Homo sapiens, UniProt P11712) data: CYP2C9 AC50 (half-maximal activity concentration) of COc1ccc(COC(C)=O)cc1 [4-Methoxybenzyl acetate] , then report it.
A. Inactive

Q. Look up human CYP2C9 (Homo sapiens, UniProt P11712) data: CYP2C9 AC50 (half-maximal activity concentration) of CC(=O)[C@H]1[C@H](C#N)C[C@H]2[C@@H]3CC=C4C[C@@H](O)CC[C@]4(C)[C@H]3CC[C@@]21C , then report it.
A. Inconclusive inhibitor

Q. Look up human CYP2C9 (Homo sapiens, UniProt P11712) data: CYP2C9 AC50 (half-maximal activity concentration) of CC(C)(C)c1ccc(C(=O)CCCCl)cc1 , then report it.
A. Inactive

Q. Look up human CYP2C9 (Homo sapiens, UniProt P11712) data: CYP2C9 AC50 (half-maximal activity concentration) of CCSC(=O)N(CC)C1CCCCC1 [Cycloate] , then report it.
A. Inconclusive inhibitor

Q. Look up human CYP2C9 (Homo sapiens, UniProt P11712) data: CYP2C9 AC50 (half-maximal activity concentration) of O=C(CCCN1CCC(O)(c2ccc(Br)cc2)CC1)c1ccc(F)cc1 , then report it.
A. Inactive

Q. Look up human CYP2C9 (Homo sapiens, UniProt P11712) data: CYP2C9 AC50 (half-maximal activity concentration) of Cc1cccc2sc(N)nc12 , then report it.
A. Inconclusive inhibitor
